Experiment: BSK_4H_Eotaxin3: BioMAP Diversity Plus: 4H Assay for Eotaxin 3 Biomarker Activity (AID 2283000)
Details: primary human endothelial cells (HUVEC); actives raise or lower the signal
Activity calls are given as the source filed them. The calls were made as follows: active = hit-call score of the fitted dose curve at least 0.9, where 1 is the maximum; inactive = score below 0.9.
Please reply with one of these outcomes: label 1 (active), label 0 (inactive)

compound=Oc1ccc(C(c2ccc(O)cc2)C(Cl)(Cl)Cl)cc1 qualitative_label="label 1"
compound=Cc1nn(C)c(Oc2ccccc2)c1C=NOCc1ccc(C(=O)OC(C)(C)C)cc1 qualitative_label="label 0"

Here's the next entry for you.
Task item: I would be grateful if you could indicate the recorded call for CCCCOC(=O)C(C)Oc1ccc(Oc2ccc(C(F)(F)F)cn2)cc1 (configuration not stated) .
Reply: label 0

* * *

Read-out: glucuronosyltransferase (UGT1A1), UGT1A1 (gene 54658)
Assay: CLD_UGT1A1_24hr: CellzDirect (CLD) Gene Expression Assay for glucuronosyltransferase (UGT1A1) at 24 hours (AID 2283696)
Records with an inconclusive call do not appear. The source made the active and inactive calls. The calls were made as follows: active = hit-call score of the fitted dose curve at least 0.9, where 1 is the maximum; inconclusive = response in the unintended direction; inactive = score below 0.9.
Please reply with one of these outcomes: active, inactive

Some solved cases for reference:
compound=CCNc1nc(N)nc(Cl)n1 qualitative_label=inactive
compound="CCOC(=O)C(C)Oc1ccc(Oc2cnc3cc(Cl)ccc3n2)cc1 (centres undefined)" qualitative_label=inactive

Task item: I would be grateful if you could indicate the recorded call for CCSC(=O)N(CC(C)C)CC(C)C .
Reply: inactive

Task item: I would be grateful if you could indicate the recorded call for CCCCCCC(C)OC(=O)COc1nc(F)c(Cl)c(N)c1Cl (centres undefined) .
Reply: inactive

Task item: I would be grateful if you could indicate the recorded call for COC(=O)c1c(Cl)nn(C)c1S(=O)(=O)NC(=O)Nc1nc(OC)cc(OC)n1 .
Reply: inactive

Task item: I would be grateful if you could indicate the recorded call for COC(=O)c1ccc(CNS(C)(=O)=O)cc1S(=O)(=O)NC(=O)Nc1nc(OC)cc(OC)n1 .
Reply: inactive

Task item: I would be grateful if you could indicate the recorded call for CCCN(CCC)C(=O)SCC .
Reply: inactive

Task item: I would be grateful if you could indicate the recorded call for CCCCC(CC)COC(=O)c1ccccc1C(=O)O (centres undefined) .
Reply: inactive

Task item: I would be grateful if you could indicate the recorded call for COC(=O)CSc1cc(N=c2sc(=O)n3n2CCCC3)c(F)cc1Cl .
Reply: active

* * *

Read-out: Cyclin D1 (CCND1), CCND1 (gene 595)
Test: LTEA_HepaRG_CCND1: Life Technologies and Expression Analysis (LTEA) Assay for Cyclin D1 (CCND1) using HepaRG (AID 2283451)
Conditions: mRNA level, 48 h; actives raise or lower the signal
Calls of active or inactive are those of the source. The calls were made as follows: active = hit-call score of the fitted dose curve at least 0.9, where 1 is the maximum; inactive = score below 0.9.
Please reply with one of these outcomes: active, inactive

molecule=CCOC(=O)c1ccc(O)cc1 qualitative_label=inactive
molecule=CCN(CC)C(=O)c1cccc(C)c1 qualitative_label=inactive
molecule=CCCOC(=O)NCCCN(C)C qualitative_label=inactive
molecule="C[C@]12CC[C@@H]3c4ccc(O)cc4C[C@@H](CCCCCCCCCS(=O)CCCC(F)(F)C(F)(F)F)[C@H]3[C@@H]1CC[C@@H]2O (stereo not given in full)" qualitative_label=active
molecule=OB(O)O qualitative_label=inactive

Task item: I would be grateful if you could indicate the recorded call for CCC(C)OC(=O)N1CCCCC1CCO (stereo not given) .
Reply: inactive

Task item: I would be grateful if you could indicate the recorded call for C=CCOC(Cn1ccnc1)c1ccc(Cl)cc1Cl (stereo not given) .
Reply: active

Task item: I would be grateful if you could indicate the recorded call for C#C[C@]1(O)CC[C@H]2[C@@H]3CCC4=CC(=O)CC[C@@H]4[C@H]3CC[C@@]21CC .
Reply: inactive

Task item: I would be grateful if you could indicate the recorded call for CCN(Cc1c(F)cccc1Cl)c1c([N+](=O)[O-])cc(C(F)(F)F)cc1[N+](=O)[O-] .
Reply: inactive

Task item: I would be grateful if you could indicate the recorded call for O=C(O)C1(C(=O)Nc2ccc(Cl)cc2Cl)CC1 .
Reply: active
